procedure summary: Pharmacokinetic test in mice
Type: in vivo
stated conditions: male, mouse; ICR mice, PO(100mg/kg), plasma
assay readout: half-life (h)

- CN(C(=O)c1ccc2nc(N)c3cncn3c2c1)[C@@H]1COC2(CC2)c2cc(C(F)(F)F)ccc21: 2.06

====

procedure summary: Pharmacokinetic test in mice
Type: in vivo
stated conditions: male, mouse, plasma; ICR mice, PO(30mg/kg); read-out: Bioavailability (F)
assay readout: bioavailability

- CN(C(=O)c1ccc2nc(N)c3cncn3c2c1)[C@@H]1COC2(CC2)c2cc(C(F)(F)F)ccc21 [Example 54]: 86.5%

====

Test system: LU99 MTAP(-/-)deleted cells
stated conditions: 144 h
assay readout: IC50 (nM)

* CN(C(=O)c1ccc2nc(N)c3cncn3c2c1)C1COC2(CCC2)c2cc(N3CCOCC3)ncc21 (stereo not shown) | 88.5

====

procedure summary: Pharmacokinetic test in mice
Type: in vivo
stated conditions: male, mouse; ICR mice, PO(30mg/kg), plasma
assay readout: AUC(0-t) (µg·h/mL)

- CN(C(=O)c1ccc2nc(N)c3cncn3c2c1)[C@@H]1COC2(CC2)c2cc(C(F)(F)F)ccc21: 220

====

procedure summary: Pharmacokinetic test in mice
Type: in vivo
stated conditions: male, mouse; ICR mice, IV(3mg/kg), plasma
assay readout: half-life (h)

• CN(C(=O)c1ccc2nc(N)c3cncn3c2c1)[C@@H]1COC2(CC2)c2cc(C(F)(F)F)ccc21 = 2.37

====

System: HCT-116 MTAP(-/-)deleted cells
stated conditions: 192 h
pIC50: −log10 of the molar value.
assay readout: pIC50

- CN(C(=O)c1ccc2nc(N)c3cncn3c2c1)C1COC2(CCC2)c2cc(N3CCOCC3)ncc21 (stereo not shown): 6.96

====

Test system: HCT-116 wild-type cells
procedure summary: Inhibitory activity on proliferation of HCT-116 wild-type cells (Cell-Titer Glo)
Assay type: cell-based
stated conditions: Homo sapiens, 192 h, 8 d incubation
assay readout: IC50

* CN(C(=O)c1ccc2nc(N)c3cncn3c2c1)[C@@H]1COC2(CCC2)c2cc(N3CC[Si](C)(C)CC3)ncc21 | 5250 nM

====

procedure summary: Pharmacokinetic test in mice
Type: in vivo
stated conditions: male, mouse; ICR mice, IV(3mg/kg), plasma
assay readout: AUC(0-t)

- CN(C(=O)c1ccc2nc(N)c3cncn3c2c1)[C@@H]1COC2(CC2)c2cc(C(F)(F)F)ccc21: 25400 ng·h/mL

====

procedure summary: Pharmacokinetic test in mice
Type: in vivo
stated conditions: male, mouse; ICR mice, PO(100mg/kg), plasma
assay readout: AUC(0-t)

* CN(C(=O)c1ccc2nc(N)c3cncn3c2c1)[C@@H]1COC2(CC2)c2cc(C(F)(F)F)ccc21 [Example 54] | 408 µg·h/mL
